# target-under-test: T1, O11-bH
# T1 chain: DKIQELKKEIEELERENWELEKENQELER
# assay-details: two-hybrid library CCNG1;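 also: natural log of median RNA to DNA barcode read ratio; higher means stronger binding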
Form field: interaction score (one value per entry).
The answer should be a number; do not append a unit.

Consider the reported interaction score for these binders:
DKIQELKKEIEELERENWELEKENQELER [O11-bH] = -0.129
DKIQQLKQKIQELEQKIQELKWENQELEQ [4H2859-bN] = 0.17
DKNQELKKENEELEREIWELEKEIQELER [O1-bH] = -0.522

# next binder below
Data request: Given the binder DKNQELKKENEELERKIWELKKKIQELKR [O10-bH] , what is its reported interaction score?
Data returned: -0.919
